- assay.system: D(4) dopamine receptor (Homo sapiens)
- Sequence (P21917 whole entry): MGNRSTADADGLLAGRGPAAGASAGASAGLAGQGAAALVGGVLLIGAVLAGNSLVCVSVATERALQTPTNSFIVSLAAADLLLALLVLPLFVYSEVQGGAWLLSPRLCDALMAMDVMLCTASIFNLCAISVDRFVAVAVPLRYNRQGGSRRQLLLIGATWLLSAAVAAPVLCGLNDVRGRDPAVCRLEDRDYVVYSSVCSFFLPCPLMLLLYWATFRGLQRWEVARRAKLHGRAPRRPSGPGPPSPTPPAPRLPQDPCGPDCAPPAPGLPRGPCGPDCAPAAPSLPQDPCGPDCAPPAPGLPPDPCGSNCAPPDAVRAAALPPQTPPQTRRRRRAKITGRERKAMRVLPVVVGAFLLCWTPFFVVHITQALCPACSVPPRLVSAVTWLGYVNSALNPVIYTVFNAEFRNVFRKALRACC
measure.name: Ki (nM)
Numbers only, in nM.

Prompt line: Which value of Ki has been reported for CC(C)(C)C(=O)NCCCCN1CCN(c2ccccc2Cl)CC1 in the records?
Response line: 79.4

Provide Ki values for the following items, in order.
1. CC(C)(C)C(=O)NCCCCN1CCN(c2ccc(C(F)(F)F)cc2)CC1
2. O=C(NCCN1CCN(c2ccc(Cl)cc2)CC1)C12CC3CC(CC(C3)C1)C2
3. CC(C)(C)C(=O)NCCCCN1CCN(c2ccc(Cl)cc2)CC1
4. CC(=O)NCCCCN1CCN(c2ccc(Cl)cc2)CC1
5. CC(C)(C)C(=O)NCCCCN1CCN(c2ccc(Br)cc2)CC1

Response line:
50.1
5.01
12.6
1260
31.6

# batch size: 4; output Ki per entry
1. CC1(C(=O)NCCCCN2CCN(c3ccc(Cl)cc3)CC2)CCCCC1
2. CC(C)(C)C(=O)NCCCN1CCN(c2ccc(Cl)cc2)CC1
3. CC(C)C(=O)NCCCCN1CCN(c2ccc(Cl)cc2)CC1
4. CC(C)(C)C(=O)NCCCCN1CCN(c2ccc(F)cc2)CC1

Response line:
10
200
126
126

Prompt line: # get_value(readout='Ki', item= CCCC(C)(C)C(=O)NCCCCN1CCN(c2ccc(Cl)cc2)CC1 )
Response line: 12.6

Recorded values, source ChEMBL document CHEMBL1129089.
